Test system: α1 -adrenergic receptors
protocol.text: binding to α1-adrenergic receptors on rat brain homogenates (3H-WB 4101)
stated.conditions: 1.6 nM 3H-WB 4101
Experimental: The activity of the compounds according to the invention with respect to binding of the α-adrenergic receptors was determined in vitro according to a method deriving from the works of B. R. Rouot et al., Life Sci., 25, 769 (1979) and of D. U'Prichard et al., Mol. Pharmacol., 13, 454 (1977). This method consists in measuring the binding to the receptor on rat brain homogenates, by marking by means of a specific tritriated ligand placed in competition with the product to be tested. […]
Can you tell me % Inhibition of the Specific Binding at 10^-7 M for α1 Recep. for the items I'm about to list?
Answer in %, number only, no unit symbol.

**Query** Name the recorded % Inhibition of the Specific Binding at 10^-7 M for α1 Recep. for COC(c1c[nH]c(C)n1)C(c1ccccc1)c1ccccc1 (stereo not drawn) .
**Result** 1

**Query** % Inhibition of the Specific Binding at 10^-7 M for α1 Recep. for CC(=C(c1ccccc1)c1ccccc1)c1c[nH]cn1 ?
**Result** 3

**Query** Requested read-out: % Inhibition of the Specific Binding at 10^-7 M for α1 Recep.. Entry: Cc1[nH]cnc1CC(c1ccccc1)c1ccccc1
**Result** 12

**Query** Look up % Inhibition of the Specific Binding at 10^-7 M for α1 Recep.: Fc1cccc(F)c1C(Cc1c[nH]cn1)c1ccccc1 (stereo not drawn)
**Result** 14

**Query** # query: % Inhibition of the Specific Binding at 10^-7 M for α1 Recep. of entry Cc1ccc(C(Cc2c[nH]cn2)c2ccccc2)cc1 (stereo not drawn)
**Result** 4

**Query** Query: % Inhibition of the Specific Binding at 10^-7 M for α1 Recep.; subject: c1ccc(C(Cc2c[nH]cn2)(c2ccccc2)c2ccccc2)cc1
**Result** 0

**Query** # query: % Inhibition of the Specific Binding at 10^-7 M for α1 Recep. of entry Fc1ccc(C(Cc2c[nH]cn2)c2ccccc2)cc1 (stereo not drawn)
**Result** 0

**Query** Field request: % Inhibition of the Specific Binding at 10^-7 M for α1 Recep. | item: Clc1ccccc1C(Cc1c[nH]cn1)c1ccccc1 (stereo not drawn)
**Result** 7

**Query** Returns the measured % Inhibition of the Specific Binding at 10^-7 M for α1 Recep. for the input compound. Input: Cc1nc(CC(c2ccccc2)c2ccccc2)c[nH]1
**Result** 0

**Query** Which % Inhibition of the Specific Binding at 10^-7 M for α1 Recep. is reported for this compound? Cc1ccc(C(Cc2c[nH]cn2)c2ccccc2)c(C)c1 (stereo not drawn)
**Result** 0

**Query** Entry c1ccc(-c2ccc(C(Cc3c[nH]cn3)c3ccccc3)cc2)cc1 (stereo not drawn) : reported % Inhibition of the Specific Binding at 10^-7 M for α1 Recep. = ?
**Result** 15

**Query** Returns the measured % Inhibition of the Specific Binding at 10^-7 M for α1 Recep. for the input compound. Input: CC(Cc1c[nH]cn1)(c1ccccc1)c1ccccc1 [Compound 10, 4(5)-[1-(2,2-diphenyl)-propyl]imidazole]
**Result** 0

---

test.target: α2 -adrenergic receptors (Rattus norvegicus)
Construct: from tissue; host or cells: rat brain homogenates
Sequence (P22909 whole entry): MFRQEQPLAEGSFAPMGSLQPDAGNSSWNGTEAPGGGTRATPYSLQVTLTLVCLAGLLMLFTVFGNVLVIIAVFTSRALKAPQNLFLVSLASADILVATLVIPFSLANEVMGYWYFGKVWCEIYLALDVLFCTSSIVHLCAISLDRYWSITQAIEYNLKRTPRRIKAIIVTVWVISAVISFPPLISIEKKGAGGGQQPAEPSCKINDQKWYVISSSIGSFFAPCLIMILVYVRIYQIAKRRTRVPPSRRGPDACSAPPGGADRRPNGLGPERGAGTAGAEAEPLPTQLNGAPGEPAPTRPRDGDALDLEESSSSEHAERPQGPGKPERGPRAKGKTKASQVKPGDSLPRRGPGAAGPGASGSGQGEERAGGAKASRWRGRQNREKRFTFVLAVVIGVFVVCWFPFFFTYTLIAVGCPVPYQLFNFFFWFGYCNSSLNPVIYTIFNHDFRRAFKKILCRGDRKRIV
protocol.text: binding to α2-adrenergic receptors on rat brain homogenates (3H-p. aminoclonidine)
stated.conditions: 10^-7 M; rat brain homogenates; 0.7 nM 3H-p. aminoclonidine; read-out: % Inhibition of the Specific Binding at 10^-7 M for α2 Recep.
Give inhibition at 0.1 µM for every item shown.
Write down the numeric answer in % and omit the unit.

**Query** Dear colleague, I am looking for the recorded inhibition at 0.1 µM of the following molecule: c1ccc(C(Cc2c[nH]cn2)(c2ccccc2)c2ccccc2)cc1
**Result** 0

**Query** Looking for the measured inhibition at 0.1 µM of OC(c1c[nH]cn1)C(c1ccccc1)c1ccccc1 (centres unmarked) , can you help?
**Result** 2

**Query** Can you share its inhibition at 0.1 µM? I mean this molecule: CCCC(=C(c1ccccc1)c1ccccc1)c1c[nH]cn1
**Result** 0

**Query** For the molecule CCCC(c1c[nH]cn1)C(c1ccccc1)c1ccccc1 (centres unmarked) [Compound 19, 4(5)-[2-(1,1-diphenyl)pentyl]imidazole] , what inhibition at 0.1 µM is on record?
**Result** 15

**Query** Could you tell me which inhibition at 0.1 µM is on file for COC(=O)c1ccccc1C(Cc1c[nH]cn1)c1ccccc1 (centres unmarked) ?
**Result** 20

Data credit: patent US4738979A
